// reported protein stability index per item
B1: MMP1 (parent)
chain: FVRGDHRDNSPFDGPGGNLAHAFQ

variants of: B1; test: protein stability index of a GFP-peptide fusion (GPS, HEK-293T) (PSI 1-6); higher = more stable; details: c terminus: a fixed tail appended;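 further: lentivirally expressed fusions sorted by FACS into six bins by GFP to DsRed ratio, PSI derived from sequencing read proportions per bin multiplied by bin number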
value type: protein stability index

mut	value type	measured
D5T	protein stability index	3.73
N18M	protein stability index	1.99
H6Q	protein stability index	1.42
Q24V	protein stability index	2.39
A20E	protein stability index	1.89
H6G	protein stability index	2.26
F12Q	protein stability index	1.8
G4D	protein stability index	3.02
N9F	protein stability index	3.83
F12L	protein stability index	1.72
P11Y	protein stability index	2.04
Q24M	protein stability index	2.73
F1Y	protein stability index	1.81
N18T	protein stability index	1.92
L19F	protein stability index	2
G17Q	protein stability index	1.95
A22C	protein stability index	1.98
N9S	protein stability index	2.41
D8M	protein stability index	3.46
Q24N	protein stability index	1.62
D5R	protein stability index	3.46
S10C	protein stability index	1.83
F1I	protein stability index	2.82
F23S	protein stability index	1.88
P11R	protein stability index	2.4
S10G	protein stability index	1.3
A20T	protein stability index	3.31
G16M	protein stability index	1.79
D13N	protein stability index	1.77
N9K	protein stability index	2.47
G14N	protein stability index	1.7
F23I	protein stability index	2.33
F1N	protein stability index	3.66
D8T	protein stability index	2.28
A22N	protein stability index	1.75
R3H	protein stability index	1.85
F1S	protein stability index	3.33
Q24F	protein stability index	2.78
F12K	protein stability index	2.27
H6V	protein stability index	2.48
G17V	protein stability index	2.43
L19K	protein stability index	2.25
Q24Y	protein stability index	3.94
G16W	protein stability index	3.43
Q24L	protein stability index	1.93
V2C	protein stability index	1.63
G4K	protein stability index	1.57
H21T	protein stability index	2.1
Q24H	protein stability index	1.84
N9C	protein stability index	1.93
D8Q	protein stability index	3.21
N18Q	protein stability index	2.27
V2I	protein stability index	1.92
R7Y	protein stability index	2.18
R7M	protein stability index	1.78
P11S	protein stability index	2.91
A22G	protein stability index	1.58
G4I	protein stability index	1.64
H21M	protein stability index	2.01
S10K	protein stability index	2.63
H6R	protein stability index	1.99
G14T	protein stability index	1.76
N18R	protein stability index	3.01
A20D	protein stability index	1.74
S10H	protein stability index	1.51
D13C	protein stability index	2.36
P15A	protein stability index	1.53
H21K	protein stability index	1.95
V2G	protein stability index	3.03
P11T	protein stability index	1.8
G4A	protein stability index	2
F12W	protein stability index	3.55
R3Y	protein stability index	1.93
P15D	protein stability index	2.97
V2E	protein stability index	3.97
N9L	protein stability index	2.31
F1A	protein stability index	3.67
H6K	protein stability index	2.57
D5P	protein stability index	2.27
G16E	protein stability index	2.54
S10E	protein stability index	1.53
R3P	protein stability index	1.44
G14L	protein stability index	2.44
G4R	protein stability index	1.56
D13Q	protein stability index	2.21
D5G	protein stability index	1.34
F23H	protein stability index	2.08
S10F	protein stability index	2.42
G4P	protein stability index	1.73
H21Y	protein stability index	2.91
D13Y	protein stability index	3.03

Origin of measurements: the supplement of paper PMC10567573
